Where these numbers come from: patent US20060079550A1

# subjectOfTest: aspartyl proteases, in particular, beta-secretase
# assayExplanation: Ki of the compounds listed in Tables 1 and 2 (no method described)
# Format: biochemical
# conditionSet: Table 1, compounds of formula Ia, W is -(CH2)n-
Let's look at some molecules and their measured Ki.

Reference set (5 entries):
molecule	result
O=C(O)[C@H](CCCN(Cc1ccc(F)cc1)S(=O)(=O)c1ccc(Br)cc1)NS(=O)(=O)c1ccc(Br)cc1	> 34900 nM
CC(C)CN(C(CCCCNC(=O)OCC1c2ccccc2-c2ccccc21)C(=O)O)S(=O)(=O)c1ccc(F)cc1 (racemic)	17.4 nM
Cc1ccc(S(=O)(=O)N(CC(C)C)[C@@H](CCCCNC(=O)C2c3ccccc3Oc3ccccc32)C(=O)O)cc1	14.5 nM
O=C(O)[C@H](CCCCN(Cc1ccc(F)cc1)S(=O)(=O)c1ccc(Br)cc1)NS(=O)(=O)c1ccc(Br)cc1	> 50000 nM
COc1ccccc1/C=C/C(=O)NCCCC[C@@H](C(=O)O)N(CC(C)C)S(=O)(=O)c1ccc([N+](=O)[O-])cc1	> 300 nM

Recall the recorded Ki for CC(C)CN([C@@H](CCCCNC(=O)CCCc1ccccc1)C(=O)O)S(=O)(=O)c1ccc(N)cc1 with aspartyl proteases, in particular, beta-secretase and state it.
> 300 nM
